Just for reference, the array DNA melting data of Ke et al. (doi:10.1101/2024.01.08.574731) is where these values come from.

- assay remarks: melting temperature; fluorescence melt of hairpins on a sequencing array, two-state fit, raised by 9.35 °C to match UV melts
- test context: sodium 0.088 M
reported property: Tm (°C)
Form entry: value (°C) — number only.

primary_sequence="GTAGCGGGAAACTGCTAC (((((.(....).)))))" val=53.6
primary_sequence="GTTGACCCGAAAGGGAAC (((..(((....))))))" val=37.8
primary_sequence="GCTACCCGAAAGGGAGC (((.(((....))))))" val=55.5
primary_sequence="GTACTCGAAAGAGACTAC ((((((....)))..)))" val=33.6
primary_sequence="GATCTAGATATAGATC ((((((....))))))" val=46.8

Let's switch to this sequence now.
Q: In one line, give reported Tm of the entry GTTGCGGGAAACCGTAGC (.(.(((....))).).) .
A: 36.1
